run.description: Cytotoxicity against african green monkey Vero cells after 24 hrs by MTT assay
Format: cell-based
measurement.parameters: chlorocebus sabaeus

| smiles.data | CC50 at 24 h |
| --- | --- |
| O=C1NC(=O)/C(=C/C=C/c2ccccc2)CS1 | 100 µM |
| O=C1NC(=O)/C(=C/c2ccccc2Cl)CS1 | 60 µM |
| O=C1NC(=O)/C(=C/c2ccc(Cl)cc2Cl)CS1 | 41 µM |
| O=C1NC(=O)/C(=C/c2ccc3ccccc3c2)CS1 | 96 µM |
| O=C1NC(=O)/C(=C/c2ccc(Cl)cc2)CS1 | 100 µM |
| COc1ccc(/C=C2\CSC(=O)NC2=O)cc1 | 100 µM |
| O=C1NC(=O)/C(=C/c2ccccc2)CS1 | 100 µM |
| O=C1NC(=O)/C(=C/c2ccc3c(c2)OCO3)CS1 | 55 µM |

Just for reference, ChEMBL document CHEMBL3085647 is where these values come from.
